- tested-target: histones
- test-method-notes: AtheNA Multi-Lyte ANA, Ab at 6.25 ug/ml
experimental-readout: AtheNA signal
Note: the reply should be a number with no unit written.

| binder | AtheNA signal |
| --- | --- |
| Ab7957/293i (antibody, IgG1, V domains shown) VH: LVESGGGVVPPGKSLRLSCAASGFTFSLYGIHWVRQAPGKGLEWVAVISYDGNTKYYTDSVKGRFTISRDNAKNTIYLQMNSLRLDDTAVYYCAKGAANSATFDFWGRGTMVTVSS VL: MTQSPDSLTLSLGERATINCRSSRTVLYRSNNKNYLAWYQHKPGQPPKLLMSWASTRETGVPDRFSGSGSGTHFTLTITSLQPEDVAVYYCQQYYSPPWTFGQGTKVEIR | 6 |
| Ab7955 (antibody, V domains shown) VH: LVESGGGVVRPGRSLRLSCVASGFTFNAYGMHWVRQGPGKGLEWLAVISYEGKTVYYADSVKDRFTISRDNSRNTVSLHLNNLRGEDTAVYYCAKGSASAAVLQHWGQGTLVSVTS VL: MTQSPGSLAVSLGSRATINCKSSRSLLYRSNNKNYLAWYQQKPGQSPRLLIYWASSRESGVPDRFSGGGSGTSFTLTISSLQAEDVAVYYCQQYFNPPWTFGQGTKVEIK | 44 |

Input: Query: AtheNA signal; subject: Ab7960/293i (antibody, IgG1, V domains shown) VH: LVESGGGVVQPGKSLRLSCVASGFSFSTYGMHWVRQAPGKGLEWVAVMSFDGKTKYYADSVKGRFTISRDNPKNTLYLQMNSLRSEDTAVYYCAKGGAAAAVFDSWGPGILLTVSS VL: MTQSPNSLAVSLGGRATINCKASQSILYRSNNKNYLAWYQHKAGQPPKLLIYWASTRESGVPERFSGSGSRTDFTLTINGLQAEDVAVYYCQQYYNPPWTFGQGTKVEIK
Output: 18

Input: State the recorded AtheNA signal for this entry: Ab7962/293i (antibody, V domains shown) VH: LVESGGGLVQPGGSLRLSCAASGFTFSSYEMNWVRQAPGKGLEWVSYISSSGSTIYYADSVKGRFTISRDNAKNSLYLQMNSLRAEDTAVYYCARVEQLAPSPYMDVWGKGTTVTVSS VL: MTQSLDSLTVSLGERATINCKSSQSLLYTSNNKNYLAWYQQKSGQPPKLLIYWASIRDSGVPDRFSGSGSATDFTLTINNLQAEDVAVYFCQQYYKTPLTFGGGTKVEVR
Output: 3
